- Test system: Dengue virus
- Test: Inhibition of Dengue virus NS2B-NS3 serine protease expressed in Escherichia coli BL 21 (DE3) at 50 uM preincubated for 15 mins before substrate addition measured after 15 mins by fluorimetric analysis
Endpoint: inhibition (%)

Example entries begin here.
>>> observed_value("CC(C)(C)NC(=O)C(=O)/C=C/c1ccc(Br)cc1")
15.1
>>> observed_value("CC(C)(C)NC(=O)C(=O)/C=C/c1cccc(F)c1")
16.8
>>> observed_value("CC(C)(C)NC(=O)C(=O)Cc1ccccc1")
20.4
>>> observed_value("COc1cccc(/C=C/C(=O)C(=O)NC(C)(C)C)c1")
17.8
>>> observed_value("CNC(=O)C(=O)/C=C/c1ccccc1")
26.9

P. O=C(/C=C/c1ccccc1)C(=O)NC1CCCCC1
Q. CC(C)(C)NC(=O)C(=O)C1CC1c1ccccc1 (stereo unspecified)
Query :: Which numeric inhibition is bigger, that of P or that of Q ? // output: label of the selected item
Result :: P
